These entries and their values trace back to ChEMBL document CHEMBL3407401.

Test system: MDA-MB-231
Experimental Protocol: Cytotoxicity against human MDA-MB-231 cells assessed as inhibition of cell survival at 25 ug/ml after 24 hrs by MTT assay
Format: functional
Recorded Conditions: MDA-MB-231, 24 h
Group membership follows inhibition at 25 µg/mL per the scheme lower segment = under 30%, middle segment = from 30% up to 40%, upper segment = 40% and over

Here's what some known entries look like.
Cc1ccc(C(=O)Nc2ccccc2C(=O)N/N=C2\C(=O)Nc3ccccc32)cc1    upper segment
O=C1Nc2ccc([N+](=O)[O-])cc2/C1=N/NC(=O)c1ccccc1NC(=O)c1ccc([N+](=O)[O-])cc1    lower segment
Cc1ccc(C(=O)Nc2ccccc2C(=O)N/N=C2\C(=O)Nc3ccc(C)cc32)cc1    middle segment
Cc1ccc(-c2nc3ccccc3c(=O)n2/N=C2\C(=O)Nc3ccc(Cl)cc32)cc1    upper segment
Cc1ccc(-c2nc3ccccc3c(=O)n2/N=C2\C(=O)Nc3ccc(C)cc32)cc1    middle segment
Cc1ccc(-c2nc3ccccc3c(=O)n2/N=C2\C(=O)Nc3ccccc32)cc1    lower segment

Place this molecule in its band: O=C1Nc2ccc(Cl)cc2/C1=N/n1c(-c2cccs2)nc2ccccc2c1=O
lower segment

Lab note: which band did Cc1ccc(C(=O)Nc2ccccc2C(=O)N/N=C2\C(=O)Nc3ccc(Cl)cc32)cc1 land in?
upper segment

====

Could you please report measured inhibition at 25 µg/mL for the items listed next?
Tested on: Daoy
Experimental Protocol: Cytotoxicity against human DaOY cells assessed as inhibition of cell survival at 25 ug/ml after 24 hrs by MTT assay
Assay type: functional

Cc1cc(Br)cc2c1NC(=O)/C2=C1\SC(=S)NC1=O    64.8%

Respectfully, I request inhibition at 25 µg/mL for each entry included below.
1. COc1ccc2c(c1)/C(=N/n1c(-c3cccs3)nc3ccccc3c1=O)C(=O)N2
2. Cc1ccc(C(=O)Nc2ccccc2C(=O)N/N=C2\C(=O)Nc3ccc(C)cc32)cc1

80.5%
49.1%

Which inhibition at 25 µg/mL reading was recorded for the compound Cc1ccc(C(=O)Nc2ccccc2C(=O)N/N=C2\C(=O)Nc3ccc([N+](=O)[O-])cc32)cc1 ?
75.8%

====

Experimental Protocol: Cytotoxicity against human HuH7 cells assessed as inhibition of cell survival at 25 ug/ml after 24 hrs by MTT assay
Assay type: functional
Recorded Conditions: Huh-7, 24 h
Observation Type: inhibition at 25 µg/mL

Cc1ccc(-c2nc3ccccc3c(=O)n2/N=C2\C(=O)Nc3ccc([N+](=O)[O-])cc32)cc1    0%
Cc1cc(Br)cc2c1NC(=O)/C2=C1\SC(=S)NC1=O    61.8%
Cc1ccc(-c2nc3ccccc3c(=O)n2/N=C2\C(=O)Nc3ccc(C)cc32)cc1    7.2%
Cc1ccc2c(c1)/C(=N/n1c(-c3cccs3)nc3ccccc3c1=O)C(=O)N2    32.9%

Batch lookup, inhibition at 25 µg/mL per entry.
1. COc1ccc2c(c1)/C(=N/n1c(-c3ccc(C)cc3)nc3ccccc3c1=O)C(=O)N2
2. Cc1ccc(C(=O)Nc2ccccc2C(=O)N/N=C2\C(=O)Nc3ccccc32)cc1
3. O=C1Nc2ccccc2/C1=N/n1c(-c2cccs2)nc2ccccc2c1=O

["53.6%", "56.4%", "0%"]

====

Test system: HeLa
Experimental Protocol: Cytotoxicity against human HeLa cells assessed as inhibition of cell survival at 25 ug/ml after 24 hrs by MTT assay
Format: functional
Observation Type: inhibition at 25 µg/mL

Examples from the recorded data:
O=C1Nc2ccc([N+](=O)[O-])cc2/C1=N/n1c(-c2cccs2)nc2ccccc2c1=O    0%
COc1ccc2c(c1)/C(=N/n1c(-c3ccc(C)cc3)nc3ccccc3c1=O)C(=O)N2    68%

Could you now look at the following compound, please?
Please give the measured inhibition at 25 µg/mL for this compound: Cc1ccc2c(c1)/C(=N/n1c(-c3cccs3)nc3ccccc3c1=O)C(=O)N2
57.8%
